test: Toxicity liver stage against HepG2, at 10uM
Type: cell-based
Set-up: test concentration 10 uM, cell line HepG2-A16-CD81EGFP
cond: human, HepG2-A16-CD81EGFP cells; read-out: INHIBITION
readout-label: cytotoxicity at 10 µM

1. CC(NCc1ccc(F)cc1)c1ccc(OCC(=O)NC2CC2)cc1 (stereo unspecified) :: 3.99%
2. CC(=O)N1CCCC(C(=O)N2CCC(=Cc3cccc(F)c3)CC2)C1 (stereo unspecified) :: 12%
3. Cc1nccn1-c1ccc(=O)n(CCNC(=O)c2ccncc2)n1 :: -3.18%
4. CN(c1nc(Cn2cc(Br)ccc2=O)cs1)C1CC1 :: 8.34%
5. CC/C=C(\C)CN1CCC(CNC(=O)c2c[nH]c(=O)c(Cl)c2)C1 (stereo unspecified) :: -13.2%
6. NC(=O)c1ccc(NC(=O)c2ccncc2Cl)cn1 :: 8.29%
